Test: absorption spectrum (maximum absorption wavelength, molar extinction coefficient)
Assay type: physicochemical
REPORTED PROPERTY: maximum absorption wavelength (nm)
Give a bare numeral; the unit nm is implied.

# MOLECULE, U, maximum absorption wavelength
measured = [
    ("COc1c(O)c2c(=O)cc(OC)c3c4c(OC)cc(=O)c5c(NC(CC(=O)O)C(=O)O)c(NC(CC(=O)O)C(=O)O)c6c(c(c1C(C(C)=O)C(C)=C6)c23)c54 (stereo not drawn) [HB-27a]", "nm", 621),
]

Prompt: maximum absorption wavelength for COc1c(O)c2c(=O)cc(OC)c3c4c(OC)cc(=O)c5c(NCCC6CCC(O)CC6)c(NCCC6CCC(O)CC6)c6c(c(c1C(C(C)=O)C(C)=C6)c23)c54 (stereo not drawn) [HB-18a] ?
Response: 614

Prompt: Need maximum absorption wavelength, item COc1c2c3c4c(c(NC(CO)C(=O)O)c(=O)c5c(NC(CO)C(=O)O)cc(OC)c(c6c(OC)cc(O)c(c1=O)c63)c54)C=C(C)C2C(C)=O (stereo not drawn) [HB-23c]
Response: 622

Prompt: Given the entry COCCOCCNC(=O)C1CCC(CNc2c(NCC3CCC(C(=O)NCCOCCOC)CC3)c3c(=O)cc(OC)c4c5c(OC)cc(=O)c6c(O)c(OC)c7c(c(c2C=C(C)C7C(C)=O)c34)c65)CC1 (stereo not drawn) [HB-13a-NH-PEG1] , report its measured maximum absorption wavelength.
Response: 624

Prompt: Give its maximum absorption wavelength value. Item: COc1c(O)c2c(=O)cc(OC)c3c4c(OC)cc(=O)c5c(NC6CCC(O)C6)c(NC6CCC(O)C6)c6c(c(c1C(C(C)=O)C(C)=C6)c23)c54 (stereo not drawn) [HB-20a]
Response: 624

Prompt: Given the molecule CCCCCCNc1c2c3c4c(c(OC)c(=O)c5c(NCCCCCC)cc(OC)c(c6c(OC)cc(O)c(c1=O)c63)c54)CC(C)=C2 [HC-34d] , what is its reported maximum absorption wavelength?
Response: 628
